# TESTED_ON: recombinant human FLAP protein (Homo sapiens, UniProt P20292)
# Sequence (P20292 whole entry): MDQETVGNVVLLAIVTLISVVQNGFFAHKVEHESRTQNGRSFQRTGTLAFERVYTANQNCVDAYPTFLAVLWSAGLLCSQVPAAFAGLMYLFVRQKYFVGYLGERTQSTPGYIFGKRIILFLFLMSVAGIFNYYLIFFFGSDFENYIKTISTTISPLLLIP
# TEST_METHOD_NOTES: FLAP binding assay, displacement of iodinated (125I) FLAP inhibitor, Scintillation Proximity Assay format
# CONDITION_PARAMETERS: [125I]L-691,831 probe, membrane protein from sf9 cells; read-out: hFLAP binding IC50
# key: entry, value: pIC50
Worth noting: pIC50 values are minus log10 of concentrations stated in mol/L.

Before answering, review these 2 worked examples.
- MOLECULE: "COC(=O)c1cc(-c2ccc(-n3cncn3)c(-c3nc4cc(-c5cnc(N)nc5)ccc4n3C(C)(C)C)c2)cs1"
  REPORTED: 8.28
- MOLECULE: "CC(C)(C)n1c(-c2cc(OC3CCOC3)ccc2-n2cncn2)nc2cc(-c3cnc(N)nc3)ccc21 (stereo not drawn)"
  REPORTED: 8.16

**Query** Answer with the recorded pIC50 of `CC(C)(C)n1c(-c2cc(Br)ccc2-n2cncn2)nc2cc(-c3cnc(N)nc3)ccc21` only.
**Result** 8.35

----------
# TESTED_ON: recombinant human FLAP protein (Homo sapiens, UniProt P20292)
# Construct: made in house; host or cells: Sf9 insect cells (membrane fraction, 100,000 x g pellet)
# TEST_METHOD_NOTES: FLAP binding assay, displacement of iodinated (125I) FLAP inhibitor, Scintillation Proximity Assay format
# CONDITION_PARAMETERS: [125I]L-691,831 probe, membrane protein from sf9 cells; read-out: hFLAP binding IC50
# key: entry, value: pIC50
Worth noting: pIC50 values are minus log10 of concentrations stated in mol/L.

**Query** Answer with the recorded pIC50 of `CC(C)(C)n1c(-c2ccccc2-n2cc(Cl)cn2)nc2cc(-c3cnc(N)nc3)ccc21` only.
**Result** 8.39

**Query** Answer with the recorded pIC50 of `CC(C)(C)n1c(-c2cc(F)ccc2-n2cncn2)nc2cc(-c3cnc(N)nc3)ccc21` only.
**Result** 8.85

**Query** Answer with the recorded pIC50 of `COCc1ccc(-n2cncn2)c(-c2nc3cc(-c4cnc(N)nc4)ccc3n2C(C)(C)C)c1` only.
**Result** 7.86

**Query** Answer with the recorded pIC50 of `Cc1noc(-c2ccc(Cl)cc2-c2nc3cc(-c4cnc(N)nc4)ccc3n2C(C)(C)C)n1` only.
**Result** 8.72

**Query** Answer with the recorded pIC50 of `Cn1nnc(-c2ccccc2-c2nc3cc(-c4cnc(N)nc4)ccc3n2C(C)(C)C)n1` only.
**Result** 8.89

----------
# TESTED_ON: recombinant human FLAP protein (Homo sapiens, UniProt P20292)
# TEST_METHOD_NOTES: FLAP binding assay, displacement of iodinated (125I) FLAP inhibitor, Scintillation Proximity Assay format
# CONDITION_PARAMETERS: [125I]L-691,831 probe, membrane protein from sf9 cells; read-out: hFLAP binding IC50
# rule met = IC50 below 3 nM (exclusive); rule not met = IC50 at/above 3 nM

**Query** Does the reported IC50 of `CC(C)(COc1ccc(-c2nc3cc(-c4cnc(N)nc4)ccc3n2C(C)(C)C)c(-n2cncn2)c1)C(=O)O` stay below 3 nM?
**Result** rule not met

**Query** Does the reported IC50 of `CC(C)(C)n1c(-c2cc(S(C)(=O)=O)ccc2-n2cncn2)nc2cc(-c3cnc(N)nc3)ccc21` stay below 3 nM?
**Result** rule not met

**Query** Does the reported IC50 of `Cc1noc(-c2ccccc2-c2nc3cc(-c4cnc5[nH]ccc5c4)ccc3n2C(C)(C)C)n1` stay below 3 nM?
**Result** rule met

**Query** Does the reported IC50 of `CC(C)(C)n1c(-c2cc(C(F)(F)F)ccc2-n2cncn2)nc2cc(-c3cnc(N)nc3)ccc21` stay below 3 nM?
**Result** rule met
